Experiment: Quantitative High-Throughput drug screen in 47 multiple myeloma cell lines against the NCATS MIPE library collection: KMS20_JCRB cell viability assay (AID 1918973); also: nearly all actives have a fitted effect of over 45% in size
Settings: CellTiter-Glo ATP, 48 h; series mostly up to 45.8 µM
Excerpt: PI: Beverly A. Mock Ph.D. Laboratory of Cancer Biology and Genetics, Center for Cancer Research, National Cancer Institute, National Institute of Health, Bethesda, Maryland […] 5; Detector; 425V; Luminescence; Viewlux PerkinElmer. […] 1. […] Briefly, the corresponding myeloma cell lines were screened in 1,536-well plates with 500 cells, 5-uL per well for inhibition of cell viability (assessed by measuring ATP levels with CellTiterGlo). […]
Results filed as inconclusive are left out. Active and inactive are the calls of the source. Calls follow the shape of the dose curve; as a rule, active = well fitted cell-killing curve with a large enough effect; inconclusive = small, poorly fitted or top-dose-only effect, or effect the other way; inactive = no such curve, though single readings can be large or run the other way.
Classes to choose from: active, inactive

Query: For this molecule, state the assay outcome: Cc1ccc(Nc2cc(-c3cccc(N4C(=O)c5ccccc5C4=O)c3)ncn2)cc1NS(C)(=O)=O
Reply: active

Query: For this molecule, state the assay outcome: CC=CC(=O)N(CC)c1ccccc1C
Reply: inactive

Query: For this molecule, state the assay outcome: COc1cc2nc(-c3ccc(N4CCN(C)CC4)cc3)nc(NCCN3CCOCC3)c2cc1OC
Reply: active

Query: For this molecule, state the assay outcome: O=C(CCc1ccc(O)cc1)c1c(O)cc(O)cc1O[C@@H]1O[C@H](CO)[C@H](O)[C@H](O)[C@H]1O
Reply: inactive

Query: For this molecule, state the assay outcome: C[N+]1(C)[C@@H]2CC(OC(=O)[C@H](CO)c3ccccc3)C[C@H]1[C@H]1O[C@@H]12 (stereo not given in full)
Reply: inactive

---

Biological target: Hexokinase-4 (Homo sapiens) + Glucokinase regulatory protein (Homo sapiens) (UniProt P35557+Q14397)
Sequence (P35557 whole entry, looked up): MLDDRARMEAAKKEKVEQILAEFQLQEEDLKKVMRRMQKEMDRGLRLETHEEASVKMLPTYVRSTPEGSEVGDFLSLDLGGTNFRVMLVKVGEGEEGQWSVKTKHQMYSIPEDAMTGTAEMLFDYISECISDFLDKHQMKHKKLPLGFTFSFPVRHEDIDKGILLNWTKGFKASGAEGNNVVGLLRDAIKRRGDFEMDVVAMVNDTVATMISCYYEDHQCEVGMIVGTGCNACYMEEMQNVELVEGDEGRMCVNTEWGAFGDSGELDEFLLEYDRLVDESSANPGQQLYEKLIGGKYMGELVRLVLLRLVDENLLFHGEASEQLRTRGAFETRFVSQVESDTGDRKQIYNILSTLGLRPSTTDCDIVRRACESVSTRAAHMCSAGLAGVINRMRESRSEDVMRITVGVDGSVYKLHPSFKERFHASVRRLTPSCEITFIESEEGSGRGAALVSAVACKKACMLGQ
Sequence (Q14397 whole entry, looked up): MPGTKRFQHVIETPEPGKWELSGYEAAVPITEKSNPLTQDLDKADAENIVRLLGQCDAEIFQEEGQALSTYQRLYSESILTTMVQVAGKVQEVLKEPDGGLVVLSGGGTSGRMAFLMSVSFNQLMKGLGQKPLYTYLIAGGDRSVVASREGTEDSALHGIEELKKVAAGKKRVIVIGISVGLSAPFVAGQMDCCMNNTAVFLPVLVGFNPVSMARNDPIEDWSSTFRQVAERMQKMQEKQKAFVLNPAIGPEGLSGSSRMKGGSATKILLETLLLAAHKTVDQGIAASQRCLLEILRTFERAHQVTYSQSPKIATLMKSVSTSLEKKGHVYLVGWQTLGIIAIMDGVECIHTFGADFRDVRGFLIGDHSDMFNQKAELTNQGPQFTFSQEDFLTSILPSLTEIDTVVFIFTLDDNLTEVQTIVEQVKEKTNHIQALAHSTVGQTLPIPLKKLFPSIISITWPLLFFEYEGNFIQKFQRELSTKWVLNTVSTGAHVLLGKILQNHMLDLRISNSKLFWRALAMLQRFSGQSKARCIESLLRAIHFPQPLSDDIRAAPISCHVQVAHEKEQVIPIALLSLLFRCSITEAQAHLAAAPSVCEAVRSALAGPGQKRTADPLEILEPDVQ
Test: qHTS assay for inhibitors of recombinant human GCK-GKRP interaction: HTRF assay (AID 743207);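 also: 0% = DMSO with GCK present and -100% = DMSO wells lacking GCK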
Conditions: recombinant GCK-GKRP HTRF binding, 60 min, with sorbitol-6-phosphate; series mostly up to 57.5 µM
The source made the active and inactive calls. The call rests on the fitted dose curve; in most records, active means well fitted curve in the direction sought with a large enough effect; inconclusive means small, poorly fitted or top-dose-only effect, or another doubt; inactive means no such curve, though single readings can be large or run the other way.
readout.label: outcome

Sample records with outcome:
[[record]]
mol_smiles = "COc1ccccc1N1CCN(CCCNc2cc(=O)n(C)c(=O)n2C)CC1"
readout_label = "outcome"
recorded_measurement = "inactive"

[[record]]
mol_smiles = "O=C1NCC2(CCN(CCc3ccccc3)CC2)O1"
readout_label = "outcome"
recorded_measurement = "inactive"

[[record]]
mol_smiles = "CCN1CCC[C@H]1CNC(=O)c1cc(S(N)(=O)=O)ccc1OC"
readout_label = "outcome"
recorded_measurement = "inactive"

[[record]]
mol_smiles = "CCN(CC)C(=O)c1ccc(O)c(OC)c1"
readout_label = "outcome"
recorded_measurement = "inactive"

[[record]]
mol_smiles = "CCCCCN(C)CCC(O)(P(=O)(O)O)P(=O)(O)O"
readout_label = "outcome"
recorded_measurement = "inactive"

[[record]]
mol_smiles = "CC(C)OC(=O)C(C)(C)Oc1ccc(C(=O)c2ccc(Cl)cc2)cc1"
readout_label = "outcome"
recorded_measurement = "inactive"


Now consider a different molecule.
Query: Please look up its outcome: CC/C(=C(\c1ccccc1)c1ccc(OCCN(C)C)cc1)c1ccccc1
Reply: inactive

---

Test: Quantitative High-Throughput drug screen in 47 multiple myeloma cell lines against the NCATS MIPE library collection: NCIH929_DSMZ cell viability assay (AID 1918978); also: nearly all actives have a fitted effect of over 35% in size
Settings: NCI-H929 myeloma viability, CellTiter-Glo ATP, 48 h; series mostly up to 45.8 µM
Records with an inconclusive call do not appear. Active and inactive are the calls of the source. Calls follow the shape of the dose curve; as a rule, active = well fitted cell-killing curve with a large enough effect; inconclusive = small, poorly fitted or top-dose-only effect; inactive = no such curve, though single readings can be large or run the other way.
Classes to choose from: 1 (yes) = active, 0 (no) = inactive

Examples with answers:
[[record]]
compound = "COc1ccc(-c2oc3c(CC=C(C)C)c(OC4O[C@H](CO)[C@@H](O)[C@H](O)[C@@H]4O)cc(O)c3c(=O)c2OC2O[C@@H](C)[C@H](O)[C@@H](O)[C@@H]2O)cc1 (stereo not given in full)"
category_label = "1 (yes)"

[[record]]
compound = "O=C(O)[C@H]1O[C@H](Oc2cc3oc(-c4ccccc4)cc(=O)c3c(O)c2O)[C@H](O)[C@@H](O)[C@H]1O"
category_label = "0 (no)"

[[record]]
compound = "O=c1c(O)c(-c2ccc(O)cc2)oc2cc(O)cc(O)c12"
category_label = "1 (yes)"

[[record]]
compound = "COCCOc1nc(-c2ccc(Cl)c(Cl)c2)n(-c2ccc(NC(=O)CCl)cc2)n1"
category_label = "1 (yes)"

[[record]]
compound = "N#C[C@H]1C[C@H]2C[C@@H]2N1C(=O)[C@@H](N)C12CC3CC(CC(O)(C3)C1)C2"
category_label = "0 (no)"

[[record]]
compound = "COc1ccc(Cc2nccc3cc(OC)c(OC)cc23)cc1OC"
category_label = "0 (no)"


Query: For this compound, state the assay outcome: O=C(Nc1ccccc1Br)N[C@@H]1CCN(c2ccc(C(F)(F)F)cn2)C1
Reply: 0 (no)

---

Experiment: Cell Viability - BJ (AID 421);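 also: cells exposed to compound for 40 hours at 37 °C before readout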
Conditions: BJ fibroblast viability, qHTS
Records with an inconclusive call do not appear. The source made the active and inactive calls. Calls come from the whole dose curve.
Classes to choose from: Yes = active, No = inactive

Examples with answers:
[[record]]
mol_smiles = "CC(=O)O[C@]1(C(C)=O)CC[C@H]2[C@@H]3C=C(Cl)C4=CC(=O)[C@@H]5C[C@@H]5[C@]4(C)[C@H]3CC[C@@]21C"
category_label = "No"

[[record]]
mol_smiles = "CCn1cc(C(=O)O)c(=O)c2ccc(C)nc21"
category_label = "No"

[[record]]
mol_smiles = "CC1=C(/C=C/C(C)=C/C=C/C(C)=C/C(=O)Nc2ccc(O)cc2)C(C)(C)CCC1"
category_label = "Yes"

[[record]]
mol_smiles = "O=c1c(O)c(-c2ccc(O)cc2)oc2cc(O)cc(O)c12"
category_label = "No"


Continue with the next molecule.
Query: For this molecule, state the assay outcome: O=C(O)Cc1cccc2ccccc12
Reply: No

---

Experiment: Quantitative High-Throughput drug screen in 47 multiple myeloma cell lines against the NCATS MIPE library collection: KMM1_JCRB cell viability assay (AID 1918960); also: nearly all actives have a fitted effect of over 30% in size
Conditions: KMM1 myeloma viability, CellTiter-Glo ATP luminescence, 48 h; series mostly up to 45.8 µM
Results filed as inconclusive are left out. Activity calls are given as the source filed them. Calls follow the shape of the dose curve; as a rule, active = well fitted cell-killing curve with a large enough effect; inconclusive = small, poorly fitted or top-dose-only effect, or effect the other way; inactive = no such curve, though single readings can be large or run the other way.
Classes to choose from: active, inactive

Examples with answers:
[[record]]
compound = "CC[C@H]1OC(=O)[C@H](C)[C@@H](O[C@H]2C[C@@](C)(OC)[C@@H](O)[C@H](C)O2)[C@H](C)[C@@H](O[C@@H]2O[C@H](C)C[C@H](N(C)C)[C@@H]2O)[C@](C)(O)C[C@@H](C)CN(C)[C@H](C)[C@@H](O)[C@]1(C)O"
category_label = "inactive"

[[record]]
compound = "Oc1ccc(C2=Cc3ccc(O)cc3OC2)cc1"
category_label = "active"

[[record]]
compound = "CN1[C@@H]2CCC[C@@H]1CC(NC(=O)c1nn(C)c3ccccc13)C2 (some centres undefined)"
category_label = "inactive"


Continue with the next compound.
Query: For this compound, state the assay outcome: COc1cc2ncnc(-n3nc(-c4ccccn4)nc3N)c2cc1OC
Reply: active

---

Tested on: MKL-1
Experiment: qHTS assay to identify novel small-molecules to repurpose for Merkel cell carcinoma treatment (AID 1296009); also: nearly all actives have a fitted effect of over 60% in size
Settings: MCC and control cell lines, CellTiter-Glo viability, 72 h; series mostly up to 46 µM
From the text: MCC is a rare and aggressive neuroendocrine skin cancer with limited treatment options. Approximately 80% of MCCs have the Merkel cell polyomavirus (MCPyV) DNA integrated into the host genome (virus-positive: VP-MCC) and viral oncogenes drive oncogenesis. The remaining MCCs are virus-negative (VN-MCC) and are caused by UV mutagenesis. […] Using cell viability as a readout (CellTiter-Glo assay) we found both overlapping and distinct drugs that can be repurposed for the treatment of VP-MCC and VN-MCC. […]
Results filed as inconclusive are left out. The source made the active and inactive calls. Calls come from the whole dose curve; as a rule, active = well fitted inhibition curve with a large enough effect; inconclusive = small, poorly fitted or top-dose-only effect; inactive = flat fitted curve, though single readings scatter.
Classes to choose from: active, inactive

Examples with answers:
[[record]]
molecule = "O=C1NC(=O)C(=Cc2ccc(-c3ccc(F)cc3)o2)S1"
category_label = "inactive"

[[record]]
molecule = "Cn1cc(C=C2C(=O)Nc3cccnc32)c2ccccc21"
category_label = "inactive"

[[record]]
molecule = "CS(=O)c1ccc(-c2nc(-c3ccc(F)cc3)c(-c3ccncc3)[nH]2)cc1 (centres undefined)"
category_label = "inactive"

[[record]]
molecule = "CC1(C)CCC(CN2CCN(c3ccc(C(=O)NS(=O)(=O)c4ccc(NCC5CCOCC5)c([N+](=O)[O-])c4)c(Oc4cnc5[nH]ccc5c4)c3)CC2)=C(c2ccc(Cl)cc2)C1"
category_label = "inactive"

[[record]]
molecule = "NC1=N[C@@]2(c3cc(NC(=O)c4ccc(F)cn4)ccc3F)COC[C@@H]2CS1"
category_label = "active"

[[record]]
molecule = "NC(=O)c1cnc(-c2ccc(C3(N)CCC3)cc2)c(-c2ccccc2)c1"
category_label = "inactive"

[[record]]
molecule = "O=C(O)c1ccc(-c2c[nH]c3ncc(-c4ccccc4)cc23)cc1C1CCCC1"
category_label = "inactive"

[[record]]
molecule = "CC(=O)N(C)C1(c2ccccc2)CCN(CCC[C@]2(c3ccc(Cl)c(Cl)c3)CCCN(C(=O)c3ccccc3)C2)CC1"
category_label = "inactive"


Query: For this molecule, state the assay outcome: COc1ccc(Cc2ccc(NC(N)=O)cc2)cc1-c1cccc(Cl)c1
Reply: inactive
